Numbers sourced from patent EP4596561A1.

- tested_on: Cytochrome Oxidase P450 2C19 (Homo sapiens)
- Sequence (P33261 whole entry): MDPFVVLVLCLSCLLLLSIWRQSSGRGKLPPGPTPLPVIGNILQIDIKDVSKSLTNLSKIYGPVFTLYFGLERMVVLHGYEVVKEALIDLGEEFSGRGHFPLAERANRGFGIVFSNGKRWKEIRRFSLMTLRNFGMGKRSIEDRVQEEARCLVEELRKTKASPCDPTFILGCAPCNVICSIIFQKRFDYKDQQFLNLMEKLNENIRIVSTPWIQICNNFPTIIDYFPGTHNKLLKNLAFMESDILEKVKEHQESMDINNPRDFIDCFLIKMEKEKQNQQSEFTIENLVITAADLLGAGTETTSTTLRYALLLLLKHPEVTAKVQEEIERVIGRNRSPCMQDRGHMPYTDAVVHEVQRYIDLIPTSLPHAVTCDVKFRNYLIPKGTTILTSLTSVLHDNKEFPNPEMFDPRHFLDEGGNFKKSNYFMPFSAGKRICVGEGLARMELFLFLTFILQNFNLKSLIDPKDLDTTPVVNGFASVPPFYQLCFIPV
pIC50: −log10 of the molar value.
assay_metric: pIC50

Look up pIC50 for this compound: CP(C)(=O)c1ccc2c(Oc3ccc(C(F)(F)F)cc3)cccc2c1 [Example 7] < 5.00

Look up pIC50 for this compound: CP(C)(=O)c1cnc(Nc2ccc(C(F)(F)F)cc2)c(-c2cn3c(n2)CCC3)c1 [Example 22] < 5.00

Look up pIC50 for this compound: Cn1cnc(-c2cc(P(C)(C)=O)ccc2Nc2ccc(C(F)(F)F)cc2)c1 [Example 14] < 5.00

Look up pIC50 for this compound: Cn1cnc(-c2cc(P(C)(C)=O)cnc2Nc2ccc(C(F)(F)F)cc2)c1 [Example 8] < 5.00

Look up pIC50 for this compound: CP(C)(=O)c1ccc2c(c1)c1ccccc1n2-c1ccc(C(F)(F)F)cc1 [Example 1] < 5.00

---

Give measured AUC(0-t) for each item. Keep answers brief.
- measurement_protocol: Pharmacokinetic test in mice (low dose)
- Type: in vivo, Balb/c mice
- conditions: mouse, plasma; mice, PO 10 mg/kg; read-out: AUClast
Write down the numeric answer in µM·h and omit the unit.

Look up AUC(0-t) for this molecule: CP(C)(=O)c1ccc2c(c1)c1cccnc1n2-c1ccc(C(F)(F)F)cc1 155

Look up AUC(0-t) for this molecule: CP(C)(=O)c1ccc(Nc2ccc(C(F)(F)F)cc2)c(-c2ncccn2)c1 295

Look up AUC(0-t) for this molecule: CP(C)(=O)c1ccc(Nc2ccc(C(F)(F)F)cc2)c(-c2ccccn2)c1 290

Look up AUC(0-t) for this molecule: CP(C)(=O)c1ccc2c(c1)c1ncccc1n2-c1ccc(C(F)(F)F)cc1 79

Look up AUC(0-t) for this molecule: Cc1cc(Oc2ccc(C(F)(F)F)cc2)c2ccc(P(C)(C)=O)cc2c1 251

---

- measurement_protocol: Pharmacokinetic test in mice (low dose)
- Assay type: in vivo, Balb/c mice
- conditions: mouse, plasma; mice, PO 10 mg/kg; read-out: T1/2 (converted)
assay_metric: half-life (h)
Write down the numeric answer in h and omit the unit.

Look up half-life for this compound: CP(C)(=O)c1ccc(Nc2ccc(C(F)(F)F)cc2)c(-c2ccccn2)c1 [Example 10] 28.2

Look up half-life for this compound: CP(C)(=O)c1ccc2c(c1)c1cccnc1n2-c1ccc(C(F)(F)F)cc1 [Example 5] 2.6

Look up half-life for this compound: CP(C)(=O)c1ccc(Nc2ccc(C(F)(F)F)cc2)c(-c2ncccn2)c1 [Example 12] 25.6

Look up half-life for this compound: CP(C)(=O)c1ccc2c(c1)c1ncccc1n2-c1ccc(C(F)(F)F)cc1 [Example 4] 3.3

Look up half-life for this compound: Cc1cc(Oc2ccc(C(F)(F)F)cc2)c2ccc(P(C)(C)=O)cc2c1 [Example 29] 17

---

- measurement_protocol: Saturated solubility in FaSSIF solution
- Type: physicochemical
- conditions: room temperature, stirred overnight
assay_metric: FaSSIF(pH = 6.5) (ug/mL)
Write down the numeric answer in ug/mL and omit the unit.

Look up FaSSIF(pH = 6.5) for this compound: Cn1cnc(-c2cc(P(C)(C)=O)ccc2Nc2ccc(C(F)(F)F)cc2)c1 [Example 14] 674.6

Look up FaSSIF(pH = 6.5) for this compound: Cc1cc(Oc2ccc(C(F)(F)F)cc2)c2ccc(P(C)(C)=O)cc2c1 [Example 29] 223.4

Look up FaSSIF(pH = 6.5) for this compound: CP(C)(=O)c1ccc(Nc2ccc(C(F)(F)F)cc2)c(-c2ccccn2)c1 [Example 10] 89.75

Look up FaSSIF(pH = 6.5) for this compound: CP(C)(=O)c1ccc2c(c1)c1cccnc1n2-c1ccc(C(F)(F)F)cc1 [Example 5] 781.7

Look up FaSSIF(pH = 6.5) for this compound: CNS(=O)(=O)c1ccc(Nc2ccc(C(F)(F)F)cc2)c(-c2cn(C)cn2)c1 [Comparative compound B3, reference compound] 14.0

Look up FaSSIF(pH = 6.5) for this compound: Cn1cnc(-c2cc(P(C)(C)=O)cnc2Nc2ccc(C(F)(F)F)cc2)c1 [Example 8] 433.97

Look up FaSSIF(pH = 6.5) for this compound: CP(C)(=O)c1cnc(Nc2ccc(C(F)(F)F)cc2)c(-c2cn3c(n2)CCC3)c1 [Example 22] 337.6

Look up FaSSIF(pH = 6.5) for this compound: CNS(=O)(=O)c1ccc2c(Oc3ccc(C(F)(F)F)cc3)cccc2c1 [Comparative compound B2, reference compound] 16.4
